Each recorded value in this set is attributed to patent US20040002442A1.

Recorded % Inhib glucagon stimulated cAMP increase (10 uM peptide, rat hepatocytes) for the following binders
TEST TARGET: glucagon receptor present in the plasma membranes isolated from rat liver (rat, UniProt P30082 27-485)
Sequence (P30082 27-485): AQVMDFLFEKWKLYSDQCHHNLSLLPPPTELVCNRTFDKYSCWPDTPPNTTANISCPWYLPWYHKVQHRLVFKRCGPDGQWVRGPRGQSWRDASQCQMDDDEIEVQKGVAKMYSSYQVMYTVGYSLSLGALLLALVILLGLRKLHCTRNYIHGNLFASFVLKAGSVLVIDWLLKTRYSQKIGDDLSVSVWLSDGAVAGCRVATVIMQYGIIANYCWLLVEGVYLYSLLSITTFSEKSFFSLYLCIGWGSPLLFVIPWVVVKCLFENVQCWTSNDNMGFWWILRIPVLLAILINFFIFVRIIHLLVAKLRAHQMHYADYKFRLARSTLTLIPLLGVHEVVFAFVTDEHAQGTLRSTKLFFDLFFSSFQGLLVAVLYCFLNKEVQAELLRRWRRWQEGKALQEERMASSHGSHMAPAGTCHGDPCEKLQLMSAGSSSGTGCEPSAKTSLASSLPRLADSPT
METHOD DESCRIPTION: cell-based or functional assay
Ends that are not written are not given here.
QUANTITY KIND: % Inhib glucagon stimulated cAMP increase (10 uM peptide, rat hepatocytes) (%)

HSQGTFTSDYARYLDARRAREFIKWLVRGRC [G185]	32
HSQGTFTSDYAKYLDARRAKEFIAWLVCGRG [G74]	23.7
HSQGTFTSDYAKYLDARRAKEFIAWLVKGCG [G76]	23
HSQGTFTSDYAKYLDAAKAKEFIAWLVKGRG [G60]	21.8
HSQGTFTSDYAKYLDARRAKEFIAWLVKCRG [G75]	17.1
HSQGTFTSDYARYLDARRAREFIAWLVKGRG [G84]	25.2
HSQGTFTSDYARYLDARRAKEFIAWLVKGR-NH2 [G55]	32.1
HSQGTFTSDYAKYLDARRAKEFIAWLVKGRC [G77]	18.6
HSQGTFTSDYARYLDAKKAKEFIAWLVKGRG [G59]	41.1
HSQGTFTSDYAKYLDAARAKEFIAWLVKGR-NH2 [G57]	18.4
HSQGTFTSDYARYLDARRAKEFIAWLVRGRG [G82]	30.2
HSQGTFTSDYAKYLDAKKAKEFIAWLVKGRG [G58]	32.6
HSQGTFTSDYAAYLDARRAKEFIAWLVKGR-NH2 [G56]	28.6
